experiment: Kinetic study: plasma kinetics of TMC278 after single IM or SC injection of a nanosuspension; assay type: in vivo, male beagle dogs; conditions: male, beagle, dog, plasma, sc, 5 mg/kg, plasma concentration of TMC278, single SC 5 mg/kg TMC278 nanosuspension, mean of 2 dogs, 696 h (d29)
Measured Parameter: concentration at 696 h (ng/mL)
Give bare numbers, in ng/mL.

QUERY: Requested read-out: concentration at 696 h. Entry: Cc1cc(C=CC#N)cc(C)c1Nc1ccnc(Nc2ccc(C#N)cc2)n1
RESULT: 15.8

###

assay: Kinetic study: plasma kinetics of TMC278 after single IM or SC injection of a nanosuspension; type: in vivo, male beagle dogs; conditions: male, beagle, dog, plasma, im, 5 mg/kg, single IM 5 mg/kg TMC278 nanosuspension, dog 18186; read-out: Cmax
Measured Parameter: Cmax (ng/mL)
Numbers only, in ng/mL.

QUERY: Requested read-out: Cmax. Entry: Cc1cc(C=CC#N)cc(C)c1Nc1ccnc(Nc2ccc(C#N)cc2)n1
RESULT: 186

###

test: Kinetic study: plasma kinetics of TMC278 after single IM or SC injection of a nanosuspension; format: in vivo, male beagle dogs; details: male, beagle, dog, plasma, sc, 5 mg/kg, plasma concentration of TMC278, single SC 5 mg/kg TMC278 nanosuspension, mean of 2 dogs, 240 h (d10)
Measured Parameter: concentration at 240 h (ng/mL)
Answers are plain numbers, in ng/mL.

QUERY: Requested read-out: concentration at 240 h. Entry: Cc1cc(C=CC#N)cc(C)c1Nc1ccnc(Nc2ccc(C#N)cc2)n1 [TMC278]
RESULT: 33.2

###

assay: Kinetic study: plasma kinetics of TMC278 after single IM or SC injection of a nanosuspension; assay type: in vivo, male beagle dogs; conditions: male, beagle, dog, plasma, sc, 5 mg/kg, plasma concentration of TMC278, single SC 5 mg/kg TMC278 nanosuspension, dog 19349, 3 h
Measured Parameter: concentration at 3 h (ng/mL)
Numbers only, in ng/mL.

QUERY: Requested read-out: concentration at 3 h. Entry: Cc1cc(C=CC#N)cc(C)c1Nc1ccnc(Nc2ccc(C#N)cc2)n1
RESULT: 8.42

###

experiment: Kinetic study: plasma kinetics of TMC278 after single IM or SC injection of a nanosuspension; type: in vivo, male beagle dogs; settings: male, beagle, dog, plasma, sc, 5 mg/kg, plasma concentration of TMC278, single SC 5 mg/kg TMC278 nanosuspension, mean of 2 dogs, 48 h (d2)
Measured Parameter: concentration at 48 h
Could you kindly put the unit after your number?

QUERY: Requested read-out: concentration at 48 h. Entry: Cc1cc(C=CC#N)cc(C)c1Nc1ccnc(Nc2ccc(C#N)cc2)n1 [TMC278]
RESULT: 32 ng/mL

###

assay: Kinetic study: plasma kinetics of TMC278 after single IM or SC injection of a nanosuspension; assay type: in vivo, male beagle dogs; conditions: male, beagle, dog, plasma, sc, 5 mg/kg, single SC 5 mg/kg TMC278 nanosuspension, mean of 2 dogs; read-out: AUC0-696 h
Measured Parameter: AUC(0-t) (ng·h/mL)
Answers are plain numbers, in ng·h/mL.

QUERY: Requested read-out: AUC(0-t). Entry: Cc1cc(C=CC#N)cc(C)c1Nc1ccnc(Nc2ccc(C#N)cc2)n1 [TMC278]
RESULT: 16300

###

experiment: Kinetic study: plasma kinetics of TMC278 after single IM or SC injection of a nanosuspension; format: in vivo, male beagle dogs; conditions: male, beagle, dog, plasma, sc, 5 mg/kg, single SC 5 mg/kg TMC278 nanosuspension, mean of 2 dogs; read-out: AUC0-2208 h
Measured Parameter: AUC(0-t) (ng·h/mL)
Numbers only, in ng·h/mL.

QUERY: Requested read-out: AUC(0-t). Entry: Cc1cc(C=CC#N)cc(C)c1Nc1ccnc(Nc2ccc(C#N)cc2)n1
RESULT: 24400

###

experiment: Kinetic study: plasma kinetics of TMC278 after single IM or SC injection of a nanosuspension; type: in vivo, male beagle dogs; conditions: male, beagle, dog, plasma, intramuscular, 5 mg/kg, plasma concentration of TMC278, single IM 5 mg/kg TMC278 nanosuspension, dog 17264, 1872 h (d78)
Measured Parameter: concentration at 1872 h (ng/mL)
Numbers only, in ng/mL.

QUERY: Requested read-out: concentration at 1872 h. Entry: Cc1cc(C=CC#N)cc(C)c1Nc1ccnc(Nc2ccc(C#N)cc2)n1
RESULT: 1.79

###

assay: Kinetic study: plasma kinetics of TMC278 after single IM or SC injection of a nanosuspension; format: in vivo, male beagle dogs; details: male, beagle, dog, plasma, intramuscular, 5 mg/kg, plasma concentration of TMC278, single IM 5 mg/kg TMC278 nanosuspension, dog 18186, 192 h (d8)
Measured Parameter: concentration at 192 h (ng/mL)
One number for each entry, in ng/mL.

QUERY: Requested read-out: concentration at 192 h. Entry: Cc1cc(C=CC#N)cc(C)c1Nc1ccnc(Nc2ccc(C#N)cc2)n1
RESULT: 75.5

###

test: Kinetic study: plasma kinetics of TMC278 after single IM or SC injection of a nanosuspension; format: in vivo, male beagle dogs; conditions: male, beagle, dog, plasma, sc, 5 mg/kg, plasma concentration of TMC278, single SC 5 mg/kg TMC278 nanosuspension, dog 19349, 8 h
Measured Parameter: concentration at 8 h (ng/mL)
One number for each entry, in ng/mL.

QUERY: Requested read-out: concentration at 8 h. Entry: Cc1cc(C=CC#N)cc(C)c1Nc1ccnc(Nc2ccc(C#N)cc2)n1
RESULT: 13.8

###

test: Kinetic study: plasma kinetics of TMC278 after single IM or SC injection of a nanosuspension; type: in vivo, male beagle dogs; conditions: male, beagle, dog, plasma, intramuscular, 5 mg/kg, plasma concentration of TMC278, single IM 5 mg/kg TMC278 nanosuspension, mean of 2 dogs, 192 h (d8)
Measured Parameter: concentration at 192 h
Could you kindly put the unit after your number?

QUERY: Requested read-out: concentration at 192 h. Entry: Cc1cc(C=CC#N)cc(C)c1Nc1ccnc(Nc2ccc(C#N)cc2)n1 [TMC278]
RESULT: 74 ng/mL

###

test: Kinetic study: plasma kinetics of TMC278 after single IM or SC injection of a nanosuspension; type: in vivo, male beagle dogs; settings: male, beagle, dog, plasma, intramuscular, 5 mg/kg, plasma concentration of TMC278, single IM 5 mg/kg TMC278 nanosuspension, dog 18186, 240 h (d10)
Measured Parameter: concentration at 240 h (ng/mL)
Give bare numbers, in ng/mL.

QUERY: Requested read-out: concentration at 240 h. Entry: Cc1cc(C=CC#N)cc(C)c1Nc1ccnc(Nc2ccc(C#N)cc2)n1
RESULT: 62.5

###

experiment: Kinetic study: plasma kinetics of TMC278 after single IM or SC injection of a nanosuspension; assay type: in vivo, male beagle dogs; details: male, beagle, dog, plasma, intramuscular, 5 mg/kg, plasma concentration of TMC278, single IM 5 mg/kg TMC278 nanosuspension, dog 17264, 48 h (d2)
Measured Parameter: concentration at 48 h (ng/mL)
Give bare numbers, in ng/mL.

QUERY: Requested read-out: concentration at 48 h. Entry: Cc1cc(C=CC#N)cc(C)c1Nc1ccnc(Nc2ccc(C#N)cc2)n1
RESULT: 159

###

test: Kinetic study: plasma kinetics of TMC278 after single IM or SC injection of a nanosuspension; type: in vivo, male beagle dogs; conditions: male, beagle, dog, plasma, sc, 5 mg/kg, plasma concentration of TMC278, single SC 5 mg/kg TMC278 nanosuspension, dog 19349, 384 h (d16)
Measured Parameter: concentration at 384 h (ng/mL)
Answers are plain numbers, in ng/mL.

QUERY: Requested read-out: concentration at 384 h. Entry: Cc1cc(C=CC#N)cc(C)c1Nc1ccnc(Nc2ccc(C#N)cc2)n1
RESULT: 16.6

###

assay: Kinetic study: plasma kinetics of TMC278 after single IM or SC injection of a nanosuspension; format: in vivo, male beagle dogs; conditions: male, beagle, dog, plasma, intramuscular, 5 mg/kg, plasma concentration of TMC278, single IM 5 mg/kg TMC278 nanosuspension, dog 18186, 696 h (d29)
Measured Parameter: concentration at 696 h (ng/mL)
Answers are plain numbers, in ng/mL.

QUERY: Requested read-out: concentration at 696 h. Entry: Cc1cc(C=CC#N)cc(C)c1Nc1ccnc(Nc2ccc(C#N)cc2)n1 [TMC278]
RESULT: 11.2

###

test: Kinetic study: plasma kinetics of TMC278 after single IM or SC injection of a nanosuspension; type: in vivo, male beagle dogs; conditions: male, beagle, dog, plasma, intramuscular, 5 mg/kg, plasma concentration of TMC278, single IM 5 mg/kg TMC278 nanosuspension, mean of 2 dogs, 3 h;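 note: healthy male beagle dogs injected in both biceps femoris muscles (IM) or both thoracal sides (SC), total volume 0.2 mL/kg, drug measured in plasma from blood samples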
Measured Parameter: concentration at 3 h (ng/mL)
Answers are plain numbers, in ng/mL.

QUERY: Requested read-out: concentration at 3 h. Entry: Cc1cc(C=CC#N)cc(C)c1Nc1ccnc(Nc2ccc(C#N)cc2)n1
RESULT: 138
